- assayInfo: Plasma pharmacokinetics in mice after single intravenous cassette doses
- condition: male, Hsd:ICR (CD-1), mouse, plasma, iv, 3 mg/kg, Cmax (highest measured value), mouse plasma, iv Cassette #3, 3 mg/kg/compound (15 mg/kg total dose)
observable: Cmax (ng/mL)
Provide the reading as a plain figure in ng/mL.

Ask | Reported Cmax for NC1CCC(Nc2nc(NCCCc3ccccc3)c3ncn(C4CCCC4)c3n2)CC1 (stereo not shown) [MDL 107167, reference compound] : what is it?
Reply | 520

----------
- assayInfo: Plasma pharmacokinetics in mice after single intravenous cassette doses
- condition: mice, Cassette #3, single 15 mg/kg iv cassette dose (3 mg/kg/compound), 24 h
observable: Mean Conc. in plasma

Below are worked cases with known answers.
Ask | GET /values?readout=Mean Conc. in plasma&item= Cl.Cl.N[C@H]1CC[C@H](Nc2nc(NC3CCN(C(=O)Oc4ccc(F)cc4)CC3)c3ncn(C4CCCC4)c3n2)CC1 [Compound 87]
Reply | BLQ^a

Ask | Data request, read-out Mean Conc. in plasma, for Cl.Cl.N[C@H]1CC[C@H](Nc2nc(NC3CCN(C(=O)Nc4ccc(C(F)(F)F)cc4)CC3)c3ncn(C4CCCC4)c3n2)CC1 [Compound 149]
Reply | BLQ

Ask | Form field: reported Mean Conc. in plasma of Cl.Cl.N[C@H]1CC[C@H](Nc2nc(NC3CCN(C(=O)Oc4ccc(Cl)cc4)CC3)c3ncn(C4CCCC4)c3n2)CC1 [Compound 88]
Reply | BLQ

Ask | Item NC1CCC(Nc2nc(NCCCc3ccccc3)c3ncn(C4CCCC4)c3n2)CC1 (centres unmarked) [MDL 107167, reference compound] has what recorded Mean Conc. in plasma?
Reply | BLQ

Continue with the compound presented below.
Ask | Which Mean Conc. in plasma value is on record for Cl.Cl.N[C@H]1CC[C@H](Nc2nc(NC3CCN(S(=O)(=O)c4cccc(C(F)(F)F)c4)CC3)c3ncn(C4CCCC4)c3n2)CC1 [Compound 112] ?
Reply | BLQ

----------
- assayInfo: Plasma pharmacokinetics in mice after single intravenous cassette doses
- condition: male, Hsd:ICR (CD-1), mouse, plasma, intravenous, 3 mg/kg, Mean Conc. in plasma, mice, Cassette #3, single 15 mg/kg iv cassette dose (3 mg/kg/compound), 0.25 h
observable: concentration at 0.25 h (µg/mL)
State just the number; it will be interpreted in µg/mL.

Ask | Requested field: concentration at 0.25 h. Item: NC1CCC(Nc2nc(NCCCc3ccccc3)c3ncn(C4CCCC4)c3n2)CC1 (stereo not shown) [MDL 107167, reference compound]
Reply | 0.324

----------
- assayInfo: Plasma pharmacokinetics in mice after single intravenous cassette doses
- condition: male, Hsd:ICR (CD-1), mouse, plasma, intravenous, 3 mg/kg, Mean Conc. in plasma, mice, Cassette #4, single 15 mg/kg iv cassette dose (3 mg/kg/compound), 0.083 h
observable: concentration at 0.083 h (ng/mL)
Report as a plain number; the unit ng/mL is understood.

Ask | For NC1CCC(Nc2nc(NCCCc3ccccc3)c3ncn(C4CCCC4)c3n2)CC1 (stereo not shown) [MDL 107167, reference compound] , what is its reported concentration at 0.083 h?
Reply | 567

----------
- assayInfo: Plasma pharmacokinetics in mice after single intravenous cassette doses
- condition: male, Hsd:ICR (CD-1), mouse, plasma, intravenous, 3 mg/kg, Mean Conc. in plasma, mice, Cassette #2, single 18 mg/kg iv cassette dose (3 mg/kg/compound), 6 h
observable: concentration at 6 h (ng/mL)
Only the number, expressed in ng/mL, is required.

Ask | What does the record list as concentration at 6 h for NC1CCC(Nc2nc(NCCCc3ccccc3)c3ncn(C4CCCC4)c3n2)CC1 (stereo not shown) [MDL 107167, reference compound] ?
Reply | 2.8
